target: human recombinant dopamine D2L receptor (Homo sapiens, UniProt P14416); construct: expressed in transfected cells; host or cells: CHO; assay: Dopamine D2L radioligand binding ([3H]Spiperone); conditions: read-out: Dopamine D2L (1 μM), percent inhibition of specific binding; compound at 1 μM; 0.16 nM [3H]Spiperone
Sequence (P14416 whole entry): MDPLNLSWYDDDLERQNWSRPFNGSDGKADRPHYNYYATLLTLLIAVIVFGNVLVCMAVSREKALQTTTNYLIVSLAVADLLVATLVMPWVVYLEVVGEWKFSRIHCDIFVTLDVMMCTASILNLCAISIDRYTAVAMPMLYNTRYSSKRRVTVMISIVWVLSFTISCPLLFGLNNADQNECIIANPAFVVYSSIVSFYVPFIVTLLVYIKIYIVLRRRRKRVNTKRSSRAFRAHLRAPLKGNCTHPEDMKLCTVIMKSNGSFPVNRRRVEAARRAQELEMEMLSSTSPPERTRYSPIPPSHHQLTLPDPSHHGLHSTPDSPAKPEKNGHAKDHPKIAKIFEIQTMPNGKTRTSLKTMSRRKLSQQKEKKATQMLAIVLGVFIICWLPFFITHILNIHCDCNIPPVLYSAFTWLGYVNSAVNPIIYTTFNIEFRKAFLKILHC
Okay, here is how we bin by inhibition at 1 µM: bottom bin (below 10%), middle bin (10% to below 20%), top bin (20% or more)

{"columns": ["input.smiles", "assigned.label"],
 "data": [
  ["CNC(=O)c1cccc(-c2ccc(-n3c4c(c5cc(C)ccc53)CN(C)CC4)nc2)c1", "middle bin"],
  ["Cc1ccc2c(c1)c1c(n2-c2ccccc2-c2ccc(F)nc2)CCN(C)C1", "bottom bin"],
  ["Cc1ccc2c(c1)c1c(n2-c2cccc(-c3ccc(F)cc3)c2)CCN(C)C1", "top bin"],
  ["Cc1ccc2c(c1)c1c(n2-c2cccc(-c3ccc4c(ccn4C)c3)c2)CCN(C)C1", "middle bin"],
  ["CNC(=O)c1ccc(-c2cccc(-n3c4c(c5cc(C)ccc53)CN(C)CC4)c2)cn1", "middle bin"],
  ["Cc1ccc2c(c1)c1c(n2-c2cscc2-c2ccc(S(C)(=O)=O)cc2)CCN(C)C1", "middle bin"],
  ["Cc1ccc2c(c1)c1c(n2-c2cscc2-c2ccncc2)CCN(C)C1", "bottom bin"],
  ["Cc1ccc2c(c1)c1c(n2-c2ccccc2N(C)C)CCN(C)C1", "top bin"],
  ["Cc1ccc2c(c1)c1c(n2-c2cccc(-c3ccnn3C)c2)CCN(C)C1", "top bin"],
  ["Cc1ccc2c(c1)c1c(n2-c2ccccc2-c2c(C)noc2C)CCN(C)C1", "bottom bin"],
  ["CN1CCc2c(c3cc(Cl)ccc3n2-c2ccsc2)C1", "top bin"],
  ["Cc1ccc2c(c1)c1c(n2-c2ccc(-c3ccc(S(N)(=O)=O)cc3)cn2)CCN(C)C1", "bottom bin"],
  ["Cc1ccc2c(c1)c1c(n2-c2ccc(-c3cnc(N(C)C)nc3)cn2)CCN(C)C1", "bottom bin"],
  ["Cc1ccc2c(c1)c1c(n2-c2ccncc2)CCN(C)C1", "middle bin"],
  ["Cc1ccc2c(c1)c1c(n2-c2ccc(-c3ccncc3)cn2)CCN(C)C1", "middle bin"],
  ["Cc1ccc2c(c1)c1c(n2-c2ccc3ncccc3c2)CCN(C)C1", "top bin"],
  ["CN1CCc2c(c3cc(Cl)ccc3n2-c2cscc2-c2ccc(F)cc2)C1", "top bin"],
  ["Cc1ccc2c(c1)c1c(n2-c2cncn2C)CCN(C)C1", "middle bin"],
  ["Cc1ccc2c(c1)c1c(n2-c2cccc(-c3ccc(S(C)(=O)=O)cc3)c2)CCN(C)C1", "bottom bin"],
  ["Cc1ccc2c(c1)c1c(n2-c2ccccc2-c2cccnc2)CCN(C)C1", "top bin"],
  ["Cc1csc(-c2ccc(-n3c4c(c5cc(C)ccc53)CN(C)CC4)nc2)c1", "bottom bin"],
  ["Cc1ccc2c(c1)c1c(n2-c2ccc3ccccc3c2)CCN(C)C1", "top bin"],
  ["Cc1ccc2c(c1)c1c(n2-c2ccccc2-c2ccc3c(ccn3C)c2)CCN(C)C1", "middle bin"],
  ["Cc1ccc2c(c1)c1c(n2-c2ccc3c(c2)CCN(C=O)C3)CCN(C)C1", "middle bin"],
  ["CN1CCc2c(c3cc(Cl)ccc3n2-c2cscc2-c2ccccc2)C1", "top bin"],
  ["Cc1ccc2c(c1)c1c(n2-c2ccccc2-c2ccc(C)s2)CCN(C)C1", "middle bin"],
  ["Cc1ccc2c(c1)c1c(n2-c2ccccc2-c2cn[nH]c2)CCN(C)C1", "bottom bin"],
  ["CC(=O)Nc1ccc(-c2ccc(-n3c4c(c5cc(C)ccc53)CN(C)CC4)nc2)cn1", "middle bin"],
  ["Cc1ccc2c(c1)c1c(n2-c2cscc2-c2cccc3[nH]ncc23)CCN(C)C1", "top bin"]
]}

---

biological target: human recombinant histamine H1 receptor (Homo sapiens); construct: expressed in transfected cells; host or cells: CHO-K1; experiment: Histamine H1 radioligand binding ([3H]Pyrilamine); details: read-out: Histamine H1 Binding (1 μM), percent inhibition of specific binding; compound at 1 μM; 1.2 nM [3H]Pyrilamine
Sequence (P35367 whole entry): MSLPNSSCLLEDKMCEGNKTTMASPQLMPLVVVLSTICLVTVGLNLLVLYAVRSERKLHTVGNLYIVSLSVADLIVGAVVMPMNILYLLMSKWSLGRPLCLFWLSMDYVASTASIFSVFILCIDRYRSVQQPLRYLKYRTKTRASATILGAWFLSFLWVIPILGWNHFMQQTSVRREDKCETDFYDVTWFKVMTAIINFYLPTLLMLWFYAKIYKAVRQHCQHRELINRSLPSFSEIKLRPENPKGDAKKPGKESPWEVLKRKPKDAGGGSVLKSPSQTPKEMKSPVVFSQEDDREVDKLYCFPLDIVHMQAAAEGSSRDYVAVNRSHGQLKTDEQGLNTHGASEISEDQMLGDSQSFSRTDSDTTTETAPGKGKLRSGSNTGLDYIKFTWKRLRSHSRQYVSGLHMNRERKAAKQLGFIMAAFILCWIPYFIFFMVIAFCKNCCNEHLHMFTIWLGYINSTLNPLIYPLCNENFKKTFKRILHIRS
Readings of inhibition at 1 µM for the listed molecules
readout: inhibition at 1 µM

{"columns": ["input.smiles", "result"],
 "data": [
  ["CNC(=O)c1cccc(-c2cscc2-n2c3c(c4cc(C)ccc42)CN(C)CC3)c1", "20%"],
  ["Cc1ccc2c(c1)c1c(n2-c2cccc(-c3cccn3C)c2)CCN(C)C1", "42%"],
  ["Cc1ccc2c(c1)c1c(n2-c2cccc(-c3cnn(C)c3)c2)CCN(C)C1", "19%"],
  ["Cc1ccc2c(c1)c1c(n2-c2ccc3ccccc3c2)CCN(C)C1", "24%"],
  ["Cc1ccc2c(c1)c1c(n2-c2ccccc2-c2cn[nH]c2)CCN(C)C1", "24%"],
  ["Cc1cc(C)c2c(c1)c1c(n2-c2cccc3ncccc23)CCN(C)C1", "42%"],
  ["Cc1ccc2c(c1)c1c(n2-c2ccc(-c3c(C)noc3C)cn2)CCN(C)C1", "3%"]
]}

---

target: human recombinant serotonin (5-Hydroxytryptamine) 5-HT2C receptor (Homo sapiens, UniProt P28335); construct: expressed in transfected cells; host or cells: CHO-K1; assay: Serotonin 5-HT2C radioligand binding ([3H]Mesulergine); details: compound at 0.1 μM; read-out: Inhibition of ligand binding, Serotonin 5-HT2C (percent inhibition of specific binding)
Sequence (P28335 33-458): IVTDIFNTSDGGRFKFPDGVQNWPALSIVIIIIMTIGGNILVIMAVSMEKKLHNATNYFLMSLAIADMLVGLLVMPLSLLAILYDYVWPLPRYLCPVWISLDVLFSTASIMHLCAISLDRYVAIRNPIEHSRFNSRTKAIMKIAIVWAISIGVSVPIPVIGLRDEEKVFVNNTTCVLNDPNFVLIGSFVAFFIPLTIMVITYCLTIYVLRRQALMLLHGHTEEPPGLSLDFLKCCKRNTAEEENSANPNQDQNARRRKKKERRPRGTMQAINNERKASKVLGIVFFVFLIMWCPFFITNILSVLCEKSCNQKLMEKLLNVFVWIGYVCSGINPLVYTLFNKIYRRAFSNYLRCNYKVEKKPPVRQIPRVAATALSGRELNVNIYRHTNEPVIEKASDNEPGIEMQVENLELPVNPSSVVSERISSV
Outcome: 1 (yes) for inhibition at 0.1 µM of at least 80%; 0 (no) for anything lower.

{"columns": ["input.smiles", "assigned.label"],
 "data": [
  ["Cc1ccc2c(c1)c1c(n2-c2cccc(-c3ccc4[nH]cnc4c3)c2)CCN(C)C1", "0 (no)"],
  ["CN1CCc2c(c3cc(Cl)ccc3n2-c2cscc2-c2ccncc2)C1", "0 (no)"],
  ["Cc1ccc2c(c1)c1c(n2-c2ccc3nc(C)ccc3c2)CCN(C)C1", "1 (yes)"],
  ["Cc1ccc2c(c1)c1c(n2-c2cccc(-c3sccc3C)c2)CCN(C)C1", "0 (no)"],
  ["Cc1ccc2c(c1)c1c(n2-c2ccccc2-c2ccc(C)s2)CCN(C)C1", "1 (yes)"],
  ["CC(=O)Nc1ccc(-c2ccccc2-n2c3c(c4cc(C)ccc42)CN(C)CC3)cn1", "0 (no)"],
  ["Cc1ccc2c(c1)c1c(n2-c2ccc(-c3ccc(F)nc3)cn2)CCN(C)C1", "1 (yes)"],
  ["Cc1ccc2c(c1)c1c(n2-c2ccncc2)CCN(C)C1", "0 (no)"],
  ["Cc1ccc2c(c1)c1c(n2-c2cscn2)CCN(C)C1", "0 (no)"],
  ["Cc1ccc2c(c1)c1c(n2-c2ccccc2-c2ccc(O)nc2)CCN(C)C1", "0 (no)"],
  ["Cc1ccc2c(c1)c1c(n2-c2ccc(-c3c(C)noc3C)cn2)CCN(C)C1", "0 (no)"],
  ["Cc1cc(C)c2c(c1)c1c(n2-c2ccc3ncccc3c2)CCN(C)C1", "0 (no)"],
  ["Cc1ccc2c(c1)c1c(n2-c2cccc(-c3ccc4c(ccn4C)c3)c2)CCN(C)C1", "0 (no)"],
  ["Cc1ccc2c(c1)c1c(n2-c2cccc(-c3ccc(S(N)(=O)=O)cc3)c2)CCN(C)C1", "0 (no)"],
  ["Cc1ccc2c(c1)c1c(n2-c2cscc2-c2ccc(S(C)(=O)=O)cc2)CCN(C)C1", "0 (no)"],
  ["Cc1ccc2c(c1)c1c(n2-c2cnc3ccccc3c2)CCN(C)C1", "1 (yes)"],
  ["Cc1ccc2c(c1)c1c(n2-c2ccoc2)CCN(C)C1", "0 (no)"],
  ["Cc1ccc2c(c1)c1c(n2-c2ccccc2-c2cn[nH]c2)CCN(C)C1", "0 (no)"]
]}

---

molecular target: human recombinant serotonin (5-Hydroxytryptamine) 5-HT2C receptor (Homo sapiens, UniProt P28335); construct: expressed in transfected cells; host or cells: CHO-K1; test: Serotonin 5-HT2C radioligand binding ([3H]Mesulergine); details: compound at 0.1 μM; read-out: Inhibition of ligand binding, Serotonin 5-HT2C (percent inhibition of specific binding)

{"columns": ["molecule", "inhibition at 0.1 µM"],
 "data": [
  ["Cc1ccc2c(c1)c1c(n2-c2cscc2-c2ccncc2)CCN(C)C1 [Compound 20]", "85%"],
  ["CC(=O)Nc1ccc(-c2cscc2-n2c3c(c4cc(C)ccc42)CN(C)CC3)cn1 [Compound 56]", "38%"],
  ["Cc1ccc2c(c1)c1c(n2-c2cccc(-c3ccc(F)cc3)c2)CCN(C)C1 [Compound 61]", "81%"]
]}

---

target: human recombinant histamine H1 receptor (Homo sapiens); construct: expressed in transfected cells; host or cells: CHO-K1; assay: Histamine H1 radioligand binding ([3H]Pyrilamine); settings: read-out: Histamine H1 Binding (1 μM), percent inhibition of specific binding; compound at 1 μM; 1.2 nM [3H]Pyrilamine
Readings of inhibition at 1 µM for the listed compounds

{"columns": ["input.smiles", "inhibition at 1 µM (%)"],
 "data": [
  ["Cc1ccc2c(c1)c1c(n2-c2ccc(-c3ccc(F)cc3)cn2)CCN(C)C1", 10],
  ["CNC(=O)c1ccc(-c2cscc2-n2c3c(c4cc(C)ccc42)CN(C)CC3)cc1", 10],
  ["Cc1ccc2c(c1)c1c(n2-c2ccc(C)nc2)CCN(C)C1", 10],
  ["Cc1ccc2c(c1)c1c(n2-c2ccc3c(c2)CCN(C=O)C3)CCN(C)C1", 35],
  ["Cc1ccc2c(c1)c1c(n2-c2ccc3ncccc3c2)CCN(C)C1", 10],
  ["Cc1ccc2c(c1)c1c(n2-c2cccc(-c3ccc4[nH]cnc4c3)c2)CCN(C)C1", 40],
  ["Cc1ccc2c(c1)c1c(n2-c2cscc2-c2cnc(N(C)C)nc2)CCN(C)C1", 15],
  ["Cc1ccc2c(c1)c1c(n2-c2ccccc2-c2ccc(O)nc2)CCN(C)C1", 28],
  ["Cc1ccc2c(c1)c1c(n2-c2cscc2-c2ccnn2C)CCN(C)C1", 22]
]}
